The values you see were collected from BindingDB's records for doi:10.1021/jm201449n.

biological target: Mitogen-activated protein kinase kinase kinase 7 (TAK1/MAP3K7) (Homo sapiens) (UniProt O43318); experiment: Inhibition of human TAK1 using ATP as substrate
Sequence (O43318 whole entry, looked up): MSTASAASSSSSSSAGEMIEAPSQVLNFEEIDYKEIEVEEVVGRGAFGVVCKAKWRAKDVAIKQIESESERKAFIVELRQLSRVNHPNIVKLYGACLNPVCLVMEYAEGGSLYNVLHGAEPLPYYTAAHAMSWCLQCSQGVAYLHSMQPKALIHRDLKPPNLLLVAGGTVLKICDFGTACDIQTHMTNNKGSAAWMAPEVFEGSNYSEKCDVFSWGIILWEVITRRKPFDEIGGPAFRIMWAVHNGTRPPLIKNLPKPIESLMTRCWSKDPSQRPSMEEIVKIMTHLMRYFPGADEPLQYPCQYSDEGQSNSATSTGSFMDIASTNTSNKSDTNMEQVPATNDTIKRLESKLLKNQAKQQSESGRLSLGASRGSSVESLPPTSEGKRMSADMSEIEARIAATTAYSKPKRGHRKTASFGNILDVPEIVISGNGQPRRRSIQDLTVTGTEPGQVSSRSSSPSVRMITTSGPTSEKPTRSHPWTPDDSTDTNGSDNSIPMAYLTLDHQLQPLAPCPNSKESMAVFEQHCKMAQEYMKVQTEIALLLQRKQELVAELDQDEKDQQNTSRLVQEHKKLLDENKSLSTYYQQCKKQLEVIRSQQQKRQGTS
Observable: pIC50
Please treat pIC50 as minus the base-10 logarithm of the molar concentration.

*Q* Dear colleague, I am looking for the recorded pIC50 of the following compound: "CC(C)Cn1c2ccc(Nc3ncccn3)cc2c2c3c(c4c(c21)CCc1nn(C)cc1-4)C(=O)NC3"
*A* 7.85
